Assay: qHTS Validation assay for Inhibitors of Plasmodium falciparum Dd2 growth in vitro; further: nearly all actives have a fitted effect of over 70% in size
Conditions: P. falciparum Dd2 in RBCs, SYBR Green growth, 72 h; series mostly up to 28.7 µM
Screen size: about 4,100 compounds; about 1,600 (39%) were called active. Not shown: some 25% with an inconclusive outcome. The call rests on the fitted dose curve; in most records, active means well fitted inhibition curve with a large enough effect; inconclusive means small, poorly fitted or top-dose-only effect; inactive means no such curve, though single readings can be large or run the other way. The list shows a part of the results.
Use one of these outcomes when replying: active, inactive

Below are worked cases with known answers.
inputSmiles	className
CC(=O)C1=C(c2ccc(Br)cc2)N(C(C)=O)n2c(nnc2C2CCCCC2)S1	active
Cc1ccc(-n2cc(CNCCc3ncc(C)[nH]3)c(-c3ccc(F)cc3)n2)cc1	active
Cc1ccc(CNC(=O)NCCc2ncc(C)n2Cc2ccc(F)cc2)cc1	inactive
COc1ccccc1NC(=O)Cn1cccc1-c1nc(-c2ccc(F)cc2)no1	inactive

Name the outcome recorded for `CC(C)c1ccccc1NC(=O)Cn1cccc1-c1nc(-c2ccccc2)no1` in the assay.
active

Name the outcome recorded for `CC(=O)C1=C(c2ccc(Cl)c(Cl)c2)N(C(C)=O)n2cnnc2S1` in the assay.
active

Name the outcome recorded for `CC(=O)C1=C(c2ccc(Cl)cc2)N(C(C)=O)n2c(nnc2C2CCCCC2)S1` in the assay.
active

Name the outcome recorded for `CC(=O)C1=C(c2ccccc2)N(C(C)=O)n2c(nnc2C2CCCCC2)S1` in the assay.
active

Name the outcome recorded for `Nc1ccc(NC(=O)c2cccc(C(=O)Nc3ccc(N)cc3Cl)c2)c(Cl)c1` in the assay.
inactive

Name the outcome recorded for `Cc1cc(Cl)ccc1NC(=O)N1C[C@H](c2nc(-c3cccnc3)no2)[C@@H](C)C1` in the assay.
inactive

====

Test: qHTS Validation assay for Inhibitors of Plasmodium falciparum Dd2 growth in vitro; further: nearly all actives have a fitted effect of over 70% in size
Details: P. falciparum Dd2 in RBCs, SYBR Green growth, 72 h; series mostly up to 28.7 µM
In all, about 4,100 compounds went through this assay and about 1,600 (39%) were called active. Roughly 25% stayed inconclusive and do not appear here. Calls follow the shape of the dose curve; as a rule, active = well fitted inhibition curve with a large enough effect; inconclusive = small, poorly fitted or top-dose-only effect; inactive = no such curve, though single readings can be large or run the other way. This is one part of the list.
Use one of these outcomes when replying: 1.0 (active), 0.0 (inactive)

compound	className
COc1cc(-c2ccnc3nc(Cc4ccc(F)cc4)nn23)cc(OC)c1OC	0.0

Name the outcome recorded for Cc1cccn2c(=O)c3cc(C(=O)NC(C)c4ccccc4)c(=N)n(CCOCCO)c3nc12 (stereo not given) in the assay.
1.0

Name the outcome recorded for `Cc1cccn2c(=O)c3cc(C(=O)NCCc4ccc(S(N)(=O)=O)cc4)n(C)c3nc12` in the assay.
0.0

Name the outcome recorded for `CCOCCCn1c(=N)c(C(=O)NCc2cccnc2)cc2c(=O)n3ccccc3nc21` in the assay.
0.0

Name the outcome recorded for CCCN(CCC)CC(O)Cn1cc(/C=C/C(=O)c2ccc(C)cc2)c2ccccc21 (stereo not given) in the assay.
1.0

====

Experiment: qHTS Validation assay for Inhibitors of Plasmodium falciparum Dd2 growth in vitro; further: nearly all actives have a fitted effect of over 70% in size
Settings: P. falciparum Dd2 in RBCs, SYBR Green growth, 72 h; series mostly up to 28.7 µM
The campaign covered roughly 4,100 compounds. About 1,600 (39%) were called active. Not shown: some 25% with an inconclusive outcome. The call rests on the fitted dose curve; in most records, active means well fitted inhibition curve with a large enough effect; inconclusive means small, poorly fitted or top-dose-only effect; inactive means no such curve, though single readings can be large or run the other way. This is one part of the list.
Use one of these outcomes when replying: active, inactive

Below are worked cases with known answers.
compound	className
CCOc1ccc(NC(=O)c2ccc3c(c2)N(C)C2CCCN2C3=O)cc1 (stereo not given)	inactive
Cc1noc(C)c1-c1cc2cc(CN(C)C)oc2c(NCCOc2ccccc2)n1	active

Name the outcome recorded for `CCCc1noc(-c2cn(C3CCN(C(=O)c4ccc(OC)cc4C)CC3)nn2)n1` in the assay.
inactive

Name the outcome recorded for `Cc1cccc(Oc2nc(-c3ccncc3)nc3ccccc23)c1` in the assay.
active

Name the outcome recorded for `CCOc1ccc(-c2cc3nc(C4CCN(C(=O)OC(C)(C)C)CC4)c(C(=O)Nc4ccc(C(=O)OC)cc4)cn3n2)cc1` in the assay.
active

====

Test: qHTS Validation assay for Inhibitors of Plasmodium falciparum Dd2 growth in vitro; further: nearly all actives have a fitted effect of over 70% in size
Conditions: P. falciparum Dd2 in RBCs, SYBR Green growth, 72 h; series mostly up to 28.7 µM
About 1,600 (39%) of roughly 4,100 compounds were called active. About 25% were inconclusive and are not listed. Calls come from the whole dose curve; as a rule, active = well fitted inhibition curve with a large enough effect; inconclusive = small, poorly fitted or top-dose-only effect; inactive = no such curve, though single readings can be large or run the other way. Some of the results follow.
Use one of these outcomes when replying: y for active, n for inactive

molecule	className
CC(=O)Nc1cccc(C(=O)N2CCC3(CC2)N=C(c2ccc(C)cc2)NO3)c1	y
COc1ccc(CCNC(=O)CC(c2ccccc2OC)c2c[nH]c3ccccc23)cc1OC (stereo unspecified)	y
O=c1c(NCCc2ccccc2)c(-c2ccccc2)c1=O	n
CC(C)C[C@@]12C(=O)N(c3cccc(Br)c3)C(=O)N1[C@H](c1ccc(F)cc1)[C@@H]1C(=O)N(C3CCCCC3)C(=O)[C@@H]12	y
c1ccc(CCNc2ccnc3cc4ccccc4cc23)cc1	y

As a next step, examine the molecule that follows.
Name the outcome recorded for `CN(C)c1cccc(-c2nccc3c(=O)cc(-c4cn[nH]c4)oc23)c1` in the assay.
n

====

Experiment: qHTS Validation assay for Inhibitors of Plasmodium falciparum Dd2 growth in vitro; further: nearly all actives have a fitted effect of over 70% in size
Conditions: P. falciparum Dd2 in RBCs, SYBR Green growth, 72 h; series mostly up to 28.7 µM
The whole screen tested about 4,100 compounds, of which about 1,600 (39%) were called active. Another 25% or so got no clear call; they are omitted. Calls come from the whole dose curve; as a rule, active = well fitted inhibition curve with a large enough effect; inconclusive = small, poorly fitted or top-dose-only effect; inactive = no such curve, though single readings can be large or run the other way. Some of the results follow.
Use one of these outcomes when replying: active, inactive

compound	className
CCOC(=O)c1ccc(NC2=CC(c3ccc(O)c(OCC)c3)N(c3ccc(C(=O)OCC)cc3)C2=O)cc1 (centres undefined)	active

As a next step, examine the compound that follows.
Name the outcome recorded for `C1CCC(COCCc2noc(C3CNC3)n2)C1` in the assay.
inactive

====

Experiment: qHTS Validation assay for Inhibitors of Plasmodium falciparum Dd2 growth in vitro; further: nearly all actives have a fitted effect of over 70% in size
Details: P. falciparum Dd2 in RBCs, SYBR Green growth, 72 h; series mostly up to 28.7 µM
The campaign covered roughly 4,100 compounds. About 1,600 (39%) were called active. Another 25% or so got no clear call; they are omitted. Calls follow the shape of the dose curve; as a rule, active = well fitted inhibition curve with a large enough effect; inconclusive = small, poorly fitted or top-dose-only effect; inactive = no such curve, though single readings can be large or run the other way. Some of the results follow.
Use one of these outcomes when replying: yes (1) = active, no (0) = inactive

Below are worked cases with known answers.
inputSmiles	className
COc1ccc(-c2noc(-c3cccn3CC(=O)NC(C)C)n2)cc1F	no (0)
COc1ccc(CC(=O)NCc2cc(C)cc3c(C)c(C)[nH]c23)c(OC)c1	yes (1)
O=C1NCCCCCCN(C(=O)C2CCC2)[C@H]2C[C@H](c3nc(-c4cccnc4)no3)C[C@@H]12	no (0)
O=S(=O)(c1ccc(Cl)cc1)N1CCN(Cc2ccc(O)c3ncccc23)CC1	yes (1)
COc1cccc(NC(=O)Cn2cccc2-c2nc(-c3ccc(OC)c(F)c3)no2)c1	yes (1)
O=C(C1=C[C@H](c2csc3ccccc23)C[C@H](OCCCCO)O1)N1CCN(Cc2ccc3c(c2)OCO3)CC1	yes (1)
O=C(NCc1nc2ccccc2[nH]1)C1=C[C@@H](c2ccccc2)C[C@@H](OCCCCO)O1	no (0)
COc1ccc(-c2noc(-c3cccn3CC(=O)NC3CCCCC3)n2)cc1F	no (0)

As a next step, examine the compound that follows.
Name the outcome recorded for `CCO[C@H]1OC(C(=O)N2CCN(Cc3ccc4c(c3)OCO4)CC2)=C[C@@H](c2cn(C(C)=O)c3ccccc23)[C@@H]1CCCO` in the assay.
yes (1)

====

Assay: qHTS Validation assay for Inhibitors of Plasmodium falciparum Dd2 growth in vitro; further: nearly all actives have a fitted effect of over 70% in size
Settings: P. falciparum Dd2 in RBCs, SYBR Green growth, 72 h; series mostly up to 28.7 µM
From the text: Malaria, a parasitic disease spread to humans through the bite of a Plasmodium infected Anopheles mosquito, continues to be a global health burden affecting millions of people, with an estimated 228 million cases and 405,000 deaths in 2018. Concerns about safety and limitations of current antimalarial treatments strongly emphasize the need to develop new therapeutic options. […]
Screen size: about 4,100 compounds; about 1,600 (39%) were called active. Another 25% or so got no clear call; they are omitted. Calls follow the shape of the dose curve; as a rule, active = well fitted inhibition curve with a large enough effect; inconclusive = small, poorly fitted or top-dose-only effect; inactive = no such curve, though single readings can be large or run the other way. The list shows a part of the results.
Use one of these outcomes when replying: True for active, False for inactive

Below are worked cases with known answers.
compound	className
F[C@@H]1CN(CC2CC2)C[C@@H]1OCc1nc2ccccc2o1	False
CC(C)(C)OC(=O)N1CCC(CNC(=O)c2ccc(F)cc2)CC1	False
Cc1oc2ccc(O)c(CN(C)Cc3ccccc3)c2c1C(=O)Nc1cccc(C(F)(F)F)c1	True

As a next step, examine the compound that follows.
Name the outcome recorded for `CCOC(=O)N1CCc2c(sc3c2c(=O)n(CCc2ccccc2)c(=O)n3Cc2c(F)cccc2Cl)C1` in the assay.
True

====

Experiment: qHTS Validation assay for Inhibitors of Plasmodium falciparum Dd2 growth in vitro; further: nearly all actives have a fitted effect of over 70% in size
Conditions: P. falciparum Dd2 in RBCs, SYBR Green growth, 72 h; series mostly up to 28.7 µM
Text: Malaria, a parasitic disease spread to humans through the bite of a Plasmodium infected Anopheles mosquito, continues to be a global health burden affecting millions of people, with an estimated 228 million cases and 405,000 deaths in 2018. Concerns about safety and limitations of current antimalarial treatments strongly emphasize the need to develop new therapeutic options. […]
Hit rate of the full screen: of about 4,100 compounds, about 1,600 (39%) were called active. About 25% were inconclusive and are not listed. Calls come from the whole dose curve; as a rule, active = well fitted inhibition curve with a large enough effect; inconclusive = small, poorly fitted or top-dose-only effect; inactive = no such curve, though single readings can be large or run the other way. Some of the results follow.
Use one of these outcomes when replying: y = active, n = inactive

compound	className
COC[C@@H]1CN(c2cnccn2)C[C@H]1C(=O)Nc1ccc(OC)nc1	n
CCN1CCN(c2cc(C)c3cc(NC(=O)/C=C/c4ccc(OCCC(C)C)cc4)ccc3n2)CC1	y
Cc1ccsc1-c1[nH]nc2ncc(-c3ccccc3)nc12	n
COc1ccc(NC(=O)C(c2ccc(Cl)cc2)C(C)C)cn1 (stereo unspecified)	y

Name the outcome recorded for `Cc1ccc(-c2nnc(Nc3ccc(O)cc3)c3ccccc23)cc1S(=O)(=O)N1CCN(C)CC1` in the assay.
y

Name the outcome recorded for `Cc1nn2c(c1-c1ccccc1-c1ccccc1)N(Cc1ccc(O)cc1)CCC2` in the assay.
y

Name the outcome recorded for COc1ccc(S(=O)(=O)N(C)C)cc1NC(C)C(=O)Nc1cccc(C#N)c1 (stereo unspecified) in the assay.
y

Name the outcome recorded for `CSCc1noc(Cc2c(C)nn(-c3ccccc3)c2C)n1` in the assay.
n

Name the outcome recorded for CC(NCc1ccccc1)c1ccccc1O (stereo unspecified) in the assay.
y

Name the outcome recorded for `O=C(CCn1c(=O)c2cccn2c2cccnc21)NCc1ccc(F)cc1` in the assay.
n

Name the outcome recorded for CC1(c2ccccc2)CC(c2ccccc2)=Nc2nonc2N1 (stereo unspecified) in the assay.
y

Name the outcome recorded for CN1CCCCC(CC(=O)NCCc2ccccc2)C1=O (stereo unspecified) in the assay.
n

Name the outcome recorded for `Oc1cc(NCc2ccc(F)cc2)cc2cccnc12` in the assay.
y

Name the outcome recorded for `CN(CC1(C)CCOCC1)C(=O)c1ccco1` in the assay.
n

Name the outcome recorded for CN1c2cc(C(=O)Nc3ccc(S(N)(=O)=O)cc3)ccc2C(=O)N2CCCCC21 (stereo unspecified) in the assay.
n

Name the outcome recorded for COc1ccc(CCNC(=O)c2cc3c(=O)n4cccc(C)c4nc3n(CC3CCCO3)c2=N)cc1 (stereo unspecified) in the assay.
n

Name the outcome recorded for `CC1=C[C@@H](CNC(C)C)[C@H](C(C)C)C[C@H]1Cc1nnc(C(C)(C)C)o1` in the assay.
n

Name the outcome recorded for `Oc1cc(NCc2ccccc2)cc2cccnc12` in the assay.
y

Name the outcome recorded for `Cc1ccc(C(=O)N2CCC(c3c[nH]c4ccccc34)(c3c[nH]c4ccccc34)CC2)cc1` in the assay.
y

Name the outcome recorded for `Cc1nn2c(c1-c1ccccc1-c1ccccc1)N(Cc1cccc(O)c1)CCC2` in the assay.
y

Name the outcome recorded for CCCCc1ccc(NC(=O)CSC2=C(C#N)C(c3ccco3)C3=C(CCCC3=O)N2)cc1 (stereo unspecified) in the assay.
n

Name the outcome recorded for `COC(=O)c1ccc(Nc2nnc(-c3ccc(C)c(S(=O)(=O)N4CCN(C)CC4)c3)c3ccccc23)cc1` in the assay.
y

Name the outcome recorded for `COCCN1C(=O)CS(=O)(=O)C12CCN(C(=O)c1cc(C)ccc1C)CC2` in the assay.
n
